test: viability loss with induced miR-34 in A549 – imaging, A549 dox-inducible miR-34, nuclei and caspase counts, primary screen (AID 1347080); details: A549 miR-34 inducible, Hoechst nuclei count, 48 h; stronger effect = lower value; cell number ratio, induced over uninduced
The source made the active and inactive calls.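 The calls were made as follows: active = compounds whose cell count with miR-34 switched on is under 0.7 times the count with it off; inactive = the rest.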
// reported fold change for each item listed

O=C(Nc1ccccc1Br)NC1CCN(c2ccc(C(F)(F)F)cn2)C1 (stereo not given) :: 0.944 (inactive)
CCN1CCN(C(=O)NC(C(=O)NC2C(=O)N3C2SC(C)(C)C3C(=O)O)c2ccccc2)C(=O)C1=O (stereo not given) :: 0.885 (inactive)
N=C(N)c1ccc(N)cc1 :: 0.998 (inactive)

The measured fold change associated with Brc1ccc([C@H]2CN3CCSC3=N2)cc1 reads 1.04 (inactive)

* * *

assay: growth inhibition, single agents and combos, CRL2098, cell-based, BGB or cisplatin IC20 combos, synergistic combos for chromothripsis tumors (AID 1671454); details: CRL2098 osteosarcoma cells, drug combinations, measured here: combination with cisplatin at IC20, at 0.5 µM, stronger effect = higher value;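 also: cells exposed for 96 h before readout; 0% = vehicle DMSO and 100% = killing by high DMSO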
// reported inhibition for each item listed
Give the quantity in %, number only.

Guide cases for inhibition, answers given:
O=C1N=c2ccccc2=C1c1c(O)[nH]c2ccccc12 :: -13.6
Nc1ccccc1NC(=O)c1cnccn1 :: -47
CCC1(O)C(=O)OCc2c1cc1n(c2=O)Cc2cc3cc(O)ccc3nc2-1 (centres undefined) :: 19
CC1CN(c2c(F)c(N)c3c(=O)c(C(=O)O)cn(C4CC4)c3c2F)CC(C)N1 (centres undefined) :: 38.8
O=c1cc(-c2ccc(O)cc2)[nH]c(=S)[nH]1 :: -91.5
Cc1cc(C)c(Nc2ccnc(Nc3ccc(C#N)cc3)n2)c(C)c1 :: 10.4
Cc1ccc(NC(=O)CCCCCC(=O)Nc2ccccc2N)cc1 :: -67.2
O=C(CCCCCCC(=O)NO)NO :: -0.415

The measured inhibition associated with NC(=S)NN=Cc1ncccc1N reads -62.8

The measured inhibition associated with C[n+]1ccc(-c2c3nc(c(-c4cc[n+](C)cc4)c4ccc([nH]4)c(-c4cc[n+](C)cc4)c4nc(c(-c5cc[n+](C)cc5)c5ccc2[nH]5)C=C4)C=C3)cc1 reads -59.6

The measured inhibition associated with Cc1cn(C2C=CC(CO)O2)c(=O)[nH]c1=O (centres undefined) reads -105

The measured inhibition associated with O=C(CCCCCCC(=O)Nc1ccc(I)cc1)NO reads -23.5

The measured inhibition associated with CCC(Sc1nnc2c3ccccc3n(CC)c2n1)C(=O)Nc1ccccc1OC (centres undefined) reads -32

The measured inhibition associated with N#Cc1ccc(OC2CCC(NC(=O)CCSc3nc4ccccc4c(=O)[nH]3)CC2)cc1 (centres undefined) reads -58.5

The measured inhibition associated with CC(C)C(=O)SCCCCCCC(=O)Nc1nc(-c2ccccc2)cs1 reads -19.3

The measured inhibition associated with Cn1cnc2[nH]c(=O)[nH]c(=O)c21 reads -102

The measured inhibition associated with CC(C)(C#N)c1ccc(N2C(=O)OCc3cnc4ccc(-c5cnc6ccccc6c5)cc4c32)cc1 reads -56.5

The measured inhibition associated with Cn1cc(-c2cnn3c(N)c(Br)c([C@H]4CCCNC4)nc23)cn1 reads -3.06

The measured inhibition associated with O=C1C(=Cc2cccnc2)C(=O)c2ccccc21 reads -22.2

The measured inhibition associated with CC(Oc1cc(-c2cnn(C3CCNCC3)c2)cnc1N)c1c(Cl)ccc(F)c1Cl (centres undefined) reads -64.1

The measured inhibition associated with Cc1ccc([N+](=O)[O-])cc1S(=O)(=O)N(C)/N=C\c1cnc2ccc(Br)cn12 reads 96.8

The measured inhibition associated with C[C@H](NC(=O)c1ccccc1N=Cc1c(O)ccc2ccccc12)c1ccccc1 reads 58.3

The measured inhibition associated with COc1cccc2c1C(=O)c1c(O)c3c(c(O)c1C2=O)CC(O)(C(=O)CO)CC3OC1CC(N)C(OC2CCCCO2)C(C)O1 (centres undefined) reads 33.2

The measured inhibition associated with NC(=O)c1cccc2cn(-c3ccc(C4CCCNC4)cc3)nc12 (centres undefined) reads -0.058
